System: MCF7 breast
assayName: NCI-60 one-dose screen, 48 h (100 = growth as untreated, 0 = no growth, -100 = all killed)
conditionsUsed: 10 µM unless noted
This is part of a sample that, as a whole, favours compounds with a hit. Of some 83,000 tested, about 20% had one in any assay.
propertyName: growth (%)
Respond numerically; units are % and should not be typed.

Please review the following examples before continuing.
CCCCN(CCCC)c1ccc(C(=N)c2ccc(N(C)C)cc2)cc1 = -52.9
NC(CSC(c1ccccc1)(c1ccccc1)c1ccc(F)cc1)C(=O)O (stereo unspecified) = 11.7
O=c1c2ccccc2sc2c(NCCCNCCO)nc3ccccc3c12 = -72.9
CCNC(=O)Oc1ccc(/C(=C(/CC)Cc2ccccc2)c2ccc(OCCN3CCOCC3)cc2)cc1 = 22.5
O=C(Nc1cccc(-n2ccc3c(NC(=O)c4ccccc4)nccc32)c1)c1cccc(C(F)(F)F)c1 = 19

Incoming: Hi! What's the reported growth for CN1C(=O)C2(SCC(C(=O)NCC(=O)OC(C)(C)C)N2C(=O)C2CCCCC2)c2ccccc21 (stereo unspecified) on MCF7 breast?
Outgoing: 97.9

Incoming: Also `CC1(C)N=C(N)N=C(N)N1c1ccc(OCC(=O)Nc2ccccc2)c(Cl)c1` , if possible.
Outgoing: 28.4

Incoming: Also `COc1ccc(Cl)cc1NC(=O)c1cc2c([nH]1)-c1nc(NC(=O)C(C)(C)C)sc1CC2` , if possible.
Outgoing: 52.1
